- Subject Of Test: human CYP11B2 (Homo sapiens, UniProt P19099)
- Sequence (P19099 25-503): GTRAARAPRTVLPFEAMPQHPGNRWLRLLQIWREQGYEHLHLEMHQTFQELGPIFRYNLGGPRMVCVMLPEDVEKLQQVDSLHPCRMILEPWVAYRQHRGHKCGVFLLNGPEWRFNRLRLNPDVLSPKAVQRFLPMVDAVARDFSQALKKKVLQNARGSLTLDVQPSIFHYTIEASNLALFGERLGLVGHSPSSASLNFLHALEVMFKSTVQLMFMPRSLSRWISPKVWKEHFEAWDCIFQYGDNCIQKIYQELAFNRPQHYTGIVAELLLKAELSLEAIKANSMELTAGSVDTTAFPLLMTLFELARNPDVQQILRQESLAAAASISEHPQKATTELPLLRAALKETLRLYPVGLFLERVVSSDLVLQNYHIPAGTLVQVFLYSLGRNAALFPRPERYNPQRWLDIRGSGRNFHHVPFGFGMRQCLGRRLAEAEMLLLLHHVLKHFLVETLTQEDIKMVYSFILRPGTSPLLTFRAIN
- Assay Procedure: G-402 cellular enzyme assay, human CYP11B2 (aldosterone release, HTRF)
- Assay Setup: G-402 cells, 1 μM Deoxycorticosterone
- Excerpt: Herein we identified the use of the G-402 cell line as a host cell to ectopically express (transiently or stably) enzymes of the CYP11 family. […] Importantly the identified cell line G-402 expresses co-factors (adrenodoxin and adrenodoxin reductase) important for the activity of the CYP11 family and no relevant enzyme activity of the CYP11 family (in comparison to H295R cells) was detected in these cells. […]
Each entry below carries its recorded EC50.
Record the value in nM, omitting the unit from your answer.

Would you please look over these solved cases?
Compound	Subject Of Test	Test Result
COCc1cncc(N2CCc3cc(Cl)ccc3C2=O)c1	human CYP11B2 (Homo sapiens, UniProt P19099)	20.1
CC[C@H]1c2cc(Cl)ccc2C(=O)N1c1cncc2c1CCC[C@@H]2NC(C)=O (single isomer, unassigned)	human CYP11B2 (Homo sapiens, UniProt P19099)	2000
COc1cncc(N2CCc3c(ccc(Cl)c3F)C2=O)c1	human CYP11B2 (Homo sapiens, UniProt P19099)	901
Cc1cncc(N2CCc3cc(Cl)ccc3C2=O)c1	human CYP11B2 (Homo sapiens, UniProt P19099)	44.9
O=C1c2ccc(Cl)cc2CCN1c1cncc(CN2CCN(CCO)CC2)c1	human CYP11B2 (Homo sapiens, UniProt P19099)	3.5
CC(=O)N[C@H]1CCCc2c1cncc2N1C(=O)c2ccc(Cl)cc2[C@@H]1C1CC1 (single isomer, unassigned)	human CYP11B2 (Homo sapiens, UniProt P19099)	4260
O=C1c2ccc(Cl)cc2CCN1c1cncc(F)c1	human CYP11B2 (Homo sapiens, UniProt P19099)	92.5
Cn1cnnc1Cc1cncc(N2CCc3cc(Cl)ccc3C2=O)c1	human CYP11B2 (Homo sapiens, UniProt P19099)	1650

## Input Provide the documented EC50 with human CYP11B2 (Homo sapiens, UniProt P19099) as the system for O=C1c2ccc(Cl)cc2CCN1c1cncc(CN2CCCCS2(=O)=O)c1
## Output 178

## Input Return EC50 measured with human CYP11B2 (Homo sapiens, UniProt P19099) given this compound: O=C1c2ccc(Cl)cc2CCN1c1cncc(COCC(F)(F)F)c1
## Output 65.3

## Input What reported EC50 corresponds to CCS(=O)(=O)Nc1cccc2c(N3CCc4cc(Cl)ccc4C3=O)cncc12 on human CYP11B2 (Homo sapiens, UniProt P19099)?
## Output 70.6

## Input Provide the documented EC50 with human CYP11B2 (Homo sapiens, UniProt P19099) as the system for O=C1c2ccc(Cl)cc2CCN1c1cncc(CN2CCS(=O)(=O)CC2)c1
## Output 43.9
